Reference for the values: ChEMBL document CHEMBL4152191

- assaySystem: Adenosine receptor A2a (Homo sapiens, UniProt P29274)
- Sequence (P29274 whole entry): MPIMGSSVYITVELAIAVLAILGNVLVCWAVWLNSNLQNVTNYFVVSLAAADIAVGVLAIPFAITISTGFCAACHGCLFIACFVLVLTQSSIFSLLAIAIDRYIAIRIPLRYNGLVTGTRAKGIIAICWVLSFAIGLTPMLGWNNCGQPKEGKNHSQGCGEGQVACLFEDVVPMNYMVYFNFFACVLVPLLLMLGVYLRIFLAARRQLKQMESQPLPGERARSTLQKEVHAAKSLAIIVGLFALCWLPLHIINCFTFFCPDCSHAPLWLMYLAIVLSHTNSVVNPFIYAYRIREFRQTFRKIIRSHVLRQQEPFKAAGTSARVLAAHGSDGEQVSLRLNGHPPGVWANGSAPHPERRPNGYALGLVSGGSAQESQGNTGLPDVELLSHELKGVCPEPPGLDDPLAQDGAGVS
- protocolNotes: Displacement of [3H]NECA from recombinant human adenosine A2A receptor transfected in CHO cell membranes after 3 hrs by microbeta scintillation counting analysis
pKi: −log10 of the molar value.
assayReadout: pKi

Study these solved cases before continuing.
1) CCCn1c(-c2ccccc2)nc2c(NC3CCCCC3)ncnc21 ... 5.97
2) CCn1c(-c2ccccc2)nc2c(NC3CCOC3)ncnc21 (stereo not drawn) ... 5.99
3) CCn1c(-c2ccccc2)nc2c(NC3CCCC3)ncnc21 ... 6.48
4) Cc1ccc(-c2nc3c(NC4CCCC4)ncnc3n2C)cc1 ... 5.74
5) CCCn1c(-c2ccccc2)nc2c(NC3CCCC3)ncnc21 ... 6.20

a = CCCn1c(-c2ccccc2)nc2c(N)ncnc21
b = CCCn1c(-c2ccccc2)nc2c(NC3CCOC3)ncnc21 (stereo not drawn)
[Q] Which one would you say has the larger pKi value: a , or b ? Answer = label.
[A] a
(a: 6.31, b: 5.77)

###

- Species: Homo sapiens
- protocolNotes: Selectivity index, ratio of Ki for recombinant human adenosine A2A receptor to Ki for recombinant human adenosine A1 receptor
assayReadout: Ratio Ki
Returns: the value as a bare number; no unit string appended.

1. Cn1c(-c2ccccc2Cl)nc2c(NC3CCCC3)ncnc21 ... 83

Turning now to a further molecule:
Sample Cn1c(-c2ccc(Cl)cc2)nc2c(NC3CCCC3)ncnc21 ; Ratio Ki observed: 101

###

- assaySystem: Adenosine receptors; A1 & A3 (Homo sapiens) (UniProt P30542+P0DMS8)
- Sequence (P0DMS8 whole entry, looked up): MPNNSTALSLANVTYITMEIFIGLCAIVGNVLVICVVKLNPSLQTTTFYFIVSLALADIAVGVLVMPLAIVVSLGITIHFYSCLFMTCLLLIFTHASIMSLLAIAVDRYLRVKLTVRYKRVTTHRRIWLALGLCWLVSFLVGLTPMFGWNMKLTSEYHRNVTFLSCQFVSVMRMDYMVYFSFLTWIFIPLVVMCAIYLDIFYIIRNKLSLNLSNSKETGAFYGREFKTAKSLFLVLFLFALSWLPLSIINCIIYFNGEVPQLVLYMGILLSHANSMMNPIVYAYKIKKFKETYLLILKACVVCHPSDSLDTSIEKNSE
- Sequence (P30542 whole entry, looked up): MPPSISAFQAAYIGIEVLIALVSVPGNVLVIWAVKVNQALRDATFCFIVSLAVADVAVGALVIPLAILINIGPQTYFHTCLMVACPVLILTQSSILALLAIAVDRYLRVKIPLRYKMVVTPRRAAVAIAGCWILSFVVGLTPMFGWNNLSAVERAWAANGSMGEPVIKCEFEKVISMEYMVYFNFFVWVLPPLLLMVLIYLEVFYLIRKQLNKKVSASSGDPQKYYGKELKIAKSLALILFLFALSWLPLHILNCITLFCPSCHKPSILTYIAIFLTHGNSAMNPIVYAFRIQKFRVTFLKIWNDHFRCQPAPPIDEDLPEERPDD
- protocolNotes: Selectivity index, ratio of Ki for recombinant human adenosine A3 receptor to Ki for recombinant human adenosine A1 receptor
assayReadout: Ratio Ki

Study these solved cases before continuing.
1. CCn1c(-c2ccccc2)nc2c(NC3CCCCC3)ncnc21 ... 71
2. Cn1c(-c2ccccc2)nc2c(NC3CCCC3)ncnc21 ... 302
3. CCCn1c(-c2ccccc2)nc2c(NC3CCC3)ncnc21 ... 18
4. CCn1c(-c2ccccc2)nc2c(N)ncnc21 ... 186
5. Cn1c(-c2cccc(Cl)c2)nc2c(NC3CCCC3)ncnc21 ... 79
6. Cc1cccc(-c2nc3c(NC4CCCC4)ncnc3n2C)c1 ... 82

1 = Cn1c(-c2ccc(Cl)cc2)nc2c(NC3CCCC3)ncnc21
2 = CCCn1c(-c2ccccc2)nc2c(NC3CCOC3)ncnc21 (centres undefined)
3 = CCn1c(-c2ccccc2)nc2c(NC3CCC3)ncnc21
4 = Cn1c(-c2ccc(C(=O)O)cc2)nc2c(NC3CCCC3)ncnc21
5 = COc1ccc(-c2nc3c(NC4CCCC4)ncnc3n2C)cc1
[Q] Would you mind ranking these molecules by ascending Ratio Ki? Respond with the label ranking, as requested.
[A] 4, 3, 5, 1, 2

###

- assaySystem: Adenosine receptors; A1 & A3 (Homo sapiens) (UniProt P30542+P0DMS8)
- protocolNotes: Selectivity index, ratio of Ki for recombinant human adenosine A3 receptor to Ki for recombinant human adenosine A1 receptor
assayReadout: Ratio Ki

1. CCCn1c(-c2ccccc2)nc2c(N)ncnc21 ... 92
2. CCn1c(-c2ccccc2)nc2c(NC3CCCC3)ncnc21 ... 91
3. Cn1c(-c2ccccc2)nc2c(NC3CCC3)ncnc21 ... 88
